- System: CAKI-1 renal
- PROTOCOL: NCI-60 one-dose screen, 48 h
- CONDITION_CONTEXT: 10 µM unless noted
- Method: Growth inhibition of the CAKI-1 human tumor cell line is measured as a screen for anti-cancer activity. Cells are grown in 96 well plates and exposed to the test compound for 48 hours. Compounds are tested at a single concentration, which is 10^-5 M for most compounds. The reported endpoint is percent growth (GI% or GIPRCNT), where numbers from 0 - 100% represent growth inhibition, and numbers from -100% - 0 represent cell death. For example, a value of 40 represents 60% growth inhibition. […]
The panel holds about 83,000 compounds, 20% with a hit somewhere; the sample as a whole holds those more often. The source made the active and inactive calls. The calls were made as follows: active = growth percent below 10; inactive = the rest.
Select the matching outcome among T for active, F for inactive

// known answers, use as guide
>  <COMPOUND>
O=C(N[C@@H]1CCCc2ccccc21)[C@H](CCC(=O)N1CCN(C2CCCCC2)CC1)N1C(=O)[C@@H](N2C(=O)OC[C@@H]2c2ccccc2)[C@H]1/C=C/c1ccccc1

>  <ANSWER_LABEL>
F

$$$$
>  <COMPOUND>
CC(C)OC(=O)Nc1cc(F)ccc1F

>  <ANSWER_LABEL>
F

$$$$
>  <COMPOUND>
CCCCOC(=O)c1cccc([N+](=O)[O-])c1

>  <ANSWER_LABEL>
F

$$$$
>  <COMPOUND>
C=C(C)[C@@H]1CC[C@]2(C(=O)N3CCN(C)CC3)CC[C@]3(C)[C@H](CC[C@@H]4[C@@]5(C)C/C(=C/c6ccncc6)[C@H](O)C(C)(C)[C@@H]5CC[C@]43C)[C@@H]12

>  <ANSWER_LABEL>
F

$$$$
>  <COMPOUND>
O=C(Nc1cccc2cccnc12)c1cc(C(=O)c2ccc(Cl)cc2)n2ccc(-c3ccncc3)cc12

>  <ANSWER_LABEL>
F

$$$$

Please state the recorded outcome for this compound: COc1cc(/C=C/C(=O)/C=C/c2ccc(-n3ccnc3C)cc2)ccc1O F

Entry CCNC(=O)N1CCc2c(Cl)c3c(c(OC)c2[C@@H]1[C@H]1OCc2c1ccc(OC)c2OC)OCCO3 please F

Entry CC(C)=CC/C=C(/C)[C@H]1CC[C@]2(C)[C@@H]1CC[C@@H]1[C@@]3(C)CC/C(=N/O)C(C)(C)[C@@H]3CC[C@]12C please F

Entry C#CCOc1ccc(C2=NN(CC3CC3)C3N=C(Cl)c4ncn(CC5CC5)c4N23)cc1OCC#C (stereo not drawn) please F

Entry O=C1CC(C(F)(F)F)Cc2nc3ccc(Br)cc3cc21 (stereo not drawn) please F

Entry C=C(C)[C@@H]1CC[C@]2(C(=O)NCCNCCNC(=O)OC(C)(C)C)CC[C@]3(C)[C@H](CC[C@@H]4[C@@]5(C)CCC(=O)C(C)(C)[C@@H]5CC[C@]43C)[C@@H]12 please F

Entry CCN(CCO)CCC(=O)c1ccc([N+](=O)[O-])cc1 please F

Entry CCN(CC)c1ccc2cc(C(Nc3ccc(C)cc3)c3nnnn3C(C)(C)C)c(=O)oc2c1 (stereo not drawn) please F

Entry CC1(C)CC[C@]2(C(=O)O)CC[C@]3(C)C(=CC[C@@H]4[C@@]5(C)C/C(=C/c6cccnc6)[C@H](O)C(C)(C)[C@@H]5CC[C@]43C)[C@@H]2C1 please T

Entry O=C(CCCCCCSc1nc(-c2ccc(Cl)cc2)cc(-c2ccc(Cl)cc2)n1)NO please F

Entry CC1(C)CC[C@]2(C(N)=O)CC[C@]3(C)C(=CC[C@@H]4[C@@]5(C)C/C(=C/c6cccnc6)C(=O)C(C)(C)[C@@H]5CC[C@]43C)[C@@H]2C1 please T

Entry CCCSc1nc(N)nc2nc[nH]c12 please F

These data points were gathered from PubChem BioAssay (NCI).
